- TEST SUMMARY: Acute toxicity in ddY mice (Test 3)
- TEST CONTEXT: mouse, in vivo; intravenous injection

>  <COMPOUND>
NC(=O)OCC1c2c(O)cc(C=O)cc2N2CC3NC3C1(O)O2 (stereo not shown)

>  <LD50 (mg/kg)>
32

$$$$
